All figures here come from ChEMBL document CHEMBL1795293.

system: Nucleic Acid; test: Binding affinity to Poly A-Poly U RNA assessed as change in melting temperature at 0.3 compound to polynucleotide ratio by UV-VIS spectral study; format: nucleic-acid assay
readout_kind: ΔTm (°C)

QUERY: Request: ΔTm, test system Nucleic Acid, entry CC(C)NC(=N)c1ccc(C(=O)Nc2cccc(NC(=O)c3ccc(C(=N)NC(C)C)cc3)n2)cc1.Cl.Cl
RESULT: 3.7

QUERY: Repeat for the following compound: Cl.Cl.N=C(N)c1ccc(C(=O)Nc2cccc(NC(=O)c3ccc(C(=N)N)cc3)n2)cc1
RESULT: 1

1. CC(C)NC(=N)c1ccc(NC(=O)c2cccc(C(=O)Nc3ccc(C(=N)NC(C)C)cc3)n2)cc1.Cl.Cl
2. Cl.Cl.N=C(N)c1ccc(NC(=O)c2ccc(C(=O)Nc3ccc(C(=N)N)cc3)o2)cc1
3. Cl.Cl.N=C(N)c1ccc(NC(=O)c2cccc(C(=O)Nc3ccc(C(=N)N)cc3)n2)cc1
4. CC(C)NC(=N)c1ccc(NC(=O)c2ccc(C(=O)Nc3ccc(C(=N)NC(C)C)cc3)o2)cc1.Cl.Cl
QUERY: Order field: ΔTm | Direction: descending (largest first) A complete answer lists every label in the requested sequence.
RESULT: 4, 1, 2, 3
(4: 4.5 °C, 1: 3.1 °C, 2: 1.6 °C, 3: 1 °C)

====

Reported IC50 is given for each of the following compounds.
test system: MOLT-4; experiment: Cytotoxicity against human MOLT4 cells after 72 hrs by MTT assay; type: functional, cell-based; conditions: MOLT-4, 72 h

Worked cases, IC50 given:
QUERY: Name the recorded IC50 for CC(C)NC(=N)c1ccc(NC(=O)c2cccc(C(=O)Nc3ccc(C(=N)NC(C)C)cc3)n2)cc1.Cl.Cl .
RESULT: > 100 µM

QUERY: For Cl.Cl.N=C(N)c1ccc(C(=O)Nc2cccc(NC(=O)c3ccc(C(=N)N)cc3)n2)cc1 then?
RESULT: > 100 µM

QUERY: Now consider Cl.Cl.N=C(N)c1ccc(NC(=O)c2cccc(C(=O)Nc3ccc(C(=N)N)cc3)n2)cc1 .
RESULT: > 100 µM

Here is another compound to look at.
QUERY: Tell me the measured IC50 of CC(C)NC(=N)c1ccc(C(=O)Nc2cccc(NC(=O)c3ccc(C(=N)NC(C)C)cc3)n2)cc1.Cl.Cl , please.
RESULT: > 100 µM

====

system: Nucleic Acid; assay: Binding affinity to calf thymus DNA assessed as ratio of ethidium bromide /compound at which 50% of ethidium bromide fluorescence is quenched by displacement assay; format: nucleic-acid assay, Bos taurus
readout_kind: IC50 (molar ratio)

// worked examples, IC50 included
QUERY: Return reported IC50; argument: Cl.Cl.N=C(N)c1ccc(NC(=O)c2cccc(C(=O)Nc3ccc(C(=N)N)cc3)n2)cc1
RESULT: 0.3

QUERY: Now the same for CC(C)NC(=N)c1ccc(NC(=O)c2cccc(C(=O)Nc3ccc(C(=N)NC(C)C)cc3)n2)cc1.Cl.Cl
RESULT: 0.15

QUERY: And the next one, Cl.Cl.N=C(N)c1ccc(C(=O)Nc2cccc(NC(=O)c3ccc(C(=N)N)cc3)n2)cc1 ?
RESULT: 0.19

QUERY: CC(C)NC(=N)c1ccc(C(=O)Nc2cccc(NC(=O)c3ccc(C(=N)NC(C)C)cc3)n2)cc1.Cl.Cl ?
RESULT: 0.13

I. Cl.Cl.N=C(N)c1ccc(NC(=O)c2ccc(C(=O)Nc3ccc(C(=N)N)cc3)o2)cc1
II. CC(C)NC(=N)c1ccc(NC(=O)c2ccc(C(=O)Nc3ccc(C(=N)NC(C)C)cc3)o2)cc1.Cl.Cl
QUERY: Compare the recorded IC50 of I and II ; state which is larger. Which one? Tell me its label.
RESULT: I

====

target: Nucleic Acid; test: Binding affinity to Poly dA-Poly dT DNA assessed as ratio of ethidium bromide /compound at which 50% of ethidium bromide fluorescence is quenched by displacement assay; format: nucleic-acid assay
readout_kind: IC50 (molar ratio)

QUERY: Looking for the measured IC50 of Cl.Cl.N=C(N)c1ccc(NC(=O)c2ccc(C(=O)Nc3ccc(C(=N)N)cc3)o2)cc1 , can you help?
RESULT: 2.1

QUERY: Same question, Cl.Cl.N=C(N)c1ccc(C(=O)Nc2cccc(NC(=O)c3ccc(C(=N)N)cc3)n2)cc1 this time
RESULT: 1.7

QUERY: Similarly, CC(C)NC(=N)c1ccc(NC(=O)c2ccc(C(=O)Nc3ccc(C(=N)NC(C)C)cc3)o2)cc1.Cl.Cl ?
RESULT: 2.23

QUERY: Proceed to CC(C)NC(=N)c1ccc(NC(=O)c2cccc(C(=O)Nc3ccc(C(=N)NC(C)C)cc3)n2)cc1.Cl.Cl
RESULT: 1.37

QUERY: Lookup CC(C)NC(=N)c1ccc(C(=O)Nc2cccc(NC(=O)c3ccc(C(=N)NC(C)C)cc3)n2)cc1.Cl.Cl
RESULT: 2

QUERY: Item: Cl.Cl.N=C(N)c1ccc(NC(=O)c2cccc(C(=O)Nc3ccc(C(=N)N)cc3)n2)cc1
RESULT: 1.6

====

test system: Nucleic Acid; experiment: Binding affinity to calf thymus DNA assessed as change in melting temperature at 0.3 ratio compound/polynucleotide by UV-VIS spectral study; type: nucleic-acid assay; details: Bos taurus
readout_kind: ΔTm (°C)

Use the examples below as a reference point.
QUERY: Fill in: ΔTm of CC(C)NC(=N)c1ccc(NC(=O)c2ccc(C(=O)Nc3ccc(C(=N)NC(C)C)cc3)o2)cc1.Cl.Cl is ___
RESULT: 5.6

QUERY: Moving on to CC(C)NC(=N)c1ccc(C(=O)Nc2cccc(NC(=O)c3ccc(C(=N)NC(C)C)cc3)n2)cc1.Cl.Cl
RESULT: 13.1

QUERY: Cool, now Cl.Cl.N=C(N)c1ccc(NC(=O)c2ccc(C(=O)Nc3ccc(C(=N)N)cc3)o2)cc1
RESULT: 7.5

QUERY: For CC(C)NC(=N)c1ccc(NC(=O)c2cccc(C(=O)Nc3ccc(C(=N)NC(C)C)cc3)n2)cc1.Cl.Cl then?
RESULT: 8.5

a. Cl.Cl.N=C(N)c1ccc(NC(=O)c2cccc(C(=O)Nc3ccc(C(=N)N)cc3)n2)cc1
b. Cl.Cl.N=C(N)c1ccc(C(=O)Nc2cccc(NC(=O)c3ccc(C(=N)N)cc3)n2)cc1
QUERY: Lowest ΔTm? choose a or b Your answer should be the label attached to the chosen record.
RESULT: a
